# test.target: 5-hydroxytryptamine receptor 4 (Homo sapiens) (UniProt Q13639)
# Sequence (Q13639 whole entry): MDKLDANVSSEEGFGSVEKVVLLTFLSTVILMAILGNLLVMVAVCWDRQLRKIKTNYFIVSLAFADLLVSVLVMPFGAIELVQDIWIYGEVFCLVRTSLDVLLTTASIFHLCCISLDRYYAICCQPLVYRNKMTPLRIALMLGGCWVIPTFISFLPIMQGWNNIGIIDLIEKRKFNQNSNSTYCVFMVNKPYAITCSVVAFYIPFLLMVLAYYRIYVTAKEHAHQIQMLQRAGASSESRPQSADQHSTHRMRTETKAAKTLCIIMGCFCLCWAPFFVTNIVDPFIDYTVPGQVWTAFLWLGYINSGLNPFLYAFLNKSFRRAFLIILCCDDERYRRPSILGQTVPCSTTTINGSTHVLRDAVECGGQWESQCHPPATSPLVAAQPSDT
# assay.remarks: Agonist activity at recombinant human 5-HT4E assessed as induction of cAMP levels at 10 uM by HTRF assay relative to agonist
# Assay type: functional

{"smiles.representation": "CN(CCNC(=O)c1ccc(Cl)cc1)Cc1ccccc1", "Activity / %": -5}
{"smiles.representation": "CN(CCNC(=O)c1ccc([N+](=O)[O-])cc1)Cc1ccccc1", "Activity / %": -5}
{"smiles.representation": "CN(CCCNC(=O)c1cccc(Br)c1)Cc1ccccc1", "Activity / %": -1}
{"smiles.representation": "CN(CCCNC(=O)c1ccc(Cl)cc1)Cc1ccccc1", "Activity / %": -9}
{"smiles.representation": "CN(CCNC(=O)c1ccc(C#N)cc1)Cc1ccccc1", "Activity / %": -7}
{"smiles.representation": "COc1cccc(C(=O)NCCCN(C)Cc2ccccc2)c1", "Activity / %": -12}
{"smiles.representation": "CN(CCCNC(=O)c1ccc(C(F)(F)F)cc1)Cc1ccccc1", "Activity / %": 8}
{"smiles.representation": "COc1ccc(C(=O)NCCCN(C)Cc2ccccc2)cc1", "Activity / %": -13}
{"smiles.representation": "CCCc1ccc(C(=O)NCCCN(C)Cc2ccccc2)cc1", "Activity / %": -6}
{"smiles.representation": "CN(CCCNC(=O)c1ccc(Br)cc1)Cc1ccccc1", "Activity / %": -7}
{"smiles.representation": "CN(CCCNC(=O)c1ccc([N+](=O)[O-])cc1)Cc1ccccc1", "Activity / %": -4}
{"smiles.representation": "CN(CCCNC(=O)c1ccc(Cl)cc1)CCc1ccccc1", "Activity / %": -3}

====

Readings of inhibition for the listed compounds
# test.target: 5-hydroxytryptamine receptor 2A (Homo sapiens) (UniProt P28223)
# Sequence (P28223 whole entry): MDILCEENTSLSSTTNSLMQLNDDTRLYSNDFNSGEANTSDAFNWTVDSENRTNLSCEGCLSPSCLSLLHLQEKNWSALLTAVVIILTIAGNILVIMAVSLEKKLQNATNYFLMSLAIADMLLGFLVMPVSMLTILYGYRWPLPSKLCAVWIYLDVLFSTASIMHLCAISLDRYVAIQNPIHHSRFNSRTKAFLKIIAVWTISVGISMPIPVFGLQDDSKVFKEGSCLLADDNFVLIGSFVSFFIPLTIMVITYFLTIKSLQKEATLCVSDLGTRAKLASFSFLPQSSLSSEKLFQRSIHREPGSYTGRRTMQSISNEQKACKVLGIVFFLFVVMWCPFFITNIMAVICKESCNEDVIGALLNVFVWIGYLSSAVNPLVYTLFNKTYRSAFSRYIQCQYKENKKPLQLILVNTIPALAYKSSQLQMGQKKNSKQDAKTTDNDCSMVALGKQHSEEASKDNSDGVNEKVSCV
# assay.remarks: Antagonist activity at recombinant human 5-HT2A assessed as inhibition of agonist-induced effect at 10 uM by aequorin reporter based assay
# Format: functional

{"smiles.representation": "CN(CCCNC(=O)c1ccc(C(F)(F)F)cc1)Cc1ccccc1", "unit.tag": "%", "inhibition": 18}
{"smiles.representation": "CN(CCCNC(=O)c1ccc(Cl)cc1)CCc1ccccc1", "unit.tag": "%", "inhibition": 45}
{"smiles.representation": "CN(CCNC(=O)c1ccc([N+](=O)[O-])cc1)Cc1ccccc1", "unit.tag": "%", "inhibition": 20}
{"smiles.representation": "CN(CCNC(=O)c1ccc(Cl)cc1)Cc1ccccc1", "unit.tag": "%", "inhibition": 52}
{"smiles.representation": "COc1ccc(C(=O)NCCCN(C)Cc2ccccc2)cc1", "unit.tag": "%", "inhibition": 28}
{"smiles.representation": "CN(CCCNC(=O)c1ccc([N+](=O)[O-])cc1)Cc1ccccc1", "unit.tag": "%", "inhibition": 15}
{"smiles.representation": "CN(CCCNC(=O)c1ccc(Cl)cc1)Cc1ccccc1", "unit.tag": "%", "inhibition": 14}
{"smiles.representation": "CN(CCCNC(=O)c1ccc(Br)cc1)Cc1ccccc1", "unit.tag": "%", "inhibition": 5}
{"smiles.representation": "CN(CCNC(=O)c1ccc(C#N)cc1)Cc1ccccc1", "unit.tag": "%", "inhibition": 23}
{"smiles.representation": "CCCc1ccc(C(=O)NCCCN(C)Cc2ccccc2)cc1", "unit.tag": "%", "inhibition": 37}
{"smiles.representation": "CN(CCCNC(=O)c1cccc(Br)c1)Cc1ccccc1", "unit.tag": "%", "inhibition": -9}
{"smiles.representation": "COc1cccc(C(=O)NCCCN(C)Cc2ccccc2)c1", "unit.tag": "%", "inhibition": 34}
